Hello, the source for this data is paper PMC11855827, in case you need it.

# Tested on: C. elegans
# method notes: microbe, parasite or virus in culture
# experimental conditions: Caenorhabditis elegans, 0 h, read-out: Percentage of motility inhibition 0 h, Table S2, C. elegans SS assay, 110 μM, 0 h, averages of 4 data points
Examples of compounds with documented inhibition at 110 µM follow.
measurement label: inhibition at 110 µM (%)

# compound, measurement label, output unit, endpoint result
records = [
    ("O=C(O)CCCCC1CCSS1 (stereo not shown)", "inhibition at 110 µM", "%", 9),
    ("O=C(O)c1cn(C2CC2)c2cc(N3CCNCC3)c(F)cc2c1=O", "inhibition at 110 µM", "%", 33),
    ("O=C(O)/C=C/C(=O)O", "inhibition at 110 µM", "%", 8),
    ("C=C1C[C@@]23CC[C@H]4[C@@](C)(CCC[C@@]4(C)C(=O)O[C@@H]4O[C@H](CO)[C@@H](O)[C@H](O)[C@H]4O)[C@@H]2CC[C@]1(O[C@@H]1O[C@H](CO)[C@@H](O)[C@H](O)[C@H]1O)C3 [Rubusoside]", "inhibition at 110 µM", "%", 0),
]

====

# method notes: Spheroids toxicity assay (alamarBlue)
# Assay type: cell-based
# experimental conditions: human, pH 7.2, CC50 HepG2 spheroids / EC50 T. circumcincta; read-out: Selective Index (SI) CC50/EC50 Sph/T. c
measurement label: selectivity ratio

# substance smiles, endpoint result
data = [
    ("CCc1nn(C)c(C(=O)NCc2ccc(Oc3ccc(C)cc3)cc2)c1Cl", 250),
]

====

# method notes: in vitro
# experimental conditions: C57BL/6, mouse, Selective Index (SI) CC50/EC50 Ent/T. c, CC50 mouse enteroid / EC50 T. circumcincta

# substance smiles, selectivity ratio
rows = [
    ("CCc1nn(C)c(C(=O)NCc2ccc(Oc3ccc(C)cc3)cc2)c1Cl", "< 5"),
]

====

# System: C. elegans
# method notes: microbe, parasite or virus in culture
# experimental conditions: Caenorhabditis elegans, 24 h, read-out: Percentage of motility inhibition 24 h, Table S2, C. elegans SS assay, 110 μM, 24 h, averages of 4 data points
The label depends only on inhibition at 110 µM: met if it is at least 20%, not met if it is smaller.

# compound, discrete label
data = [
    ("CC(C)(O)/C=C/C(=O)[C@](C)(O)[C@H]1[C@H](O)C[C@@]2(C)[C@@H]3CC=C4[C@@H](C[C@H](O)C(=O)C4(C)C)[C@]3(C)C(=O)C[C@]12C [Cucurbitacin D]", "met"),
    ("O=c1c(O[C@@H]2O[C@@H](CO)[C@H](O)[C@H]2O)c(-c2ccc(O)c(O)c2)oc2cc(O)cc(O)c12 [Avicularin]", "met"),
    ("Nc1ncnc2c1ncn2[C@@H]1O[C@H](CO)[C@@H](O)[C@H]1O [Adenosine]", "not met"),
    ("COc1ccc2cc1Oc1ccc(cc1)C[C@H]1c3cc(c(OC)cc3CCN1C)Oc1c(O)c(OC)cc3c1[C@H](C2)N(C)CC3 [Fangchinoline]", "not met"),
    ("CCc1c(Cl)c(O)c(Cl)c(O)c1C(=O)O[C@H]1[C@H](O)[C@H](OC)[C@H](OC/C2=C\\C=C\\C[C@H](O)/C(C)=C/[C@H](CC)[C@@H](O[C@@H]3OC(C)(C)[C@@H](OC(=O)C(C)C)[C@H](O)[C@@H]3O)/C(C)=C/C(C)=C/C[C@@H]([C@@H](C)O)OC2=O)O[C@@H]1C [Fidaxomicin, reference compound]", "met"),
    ("COC(=O)Nc1nc2ccccc2[nH]1 [Carbendazim]", "not met"),
]

====

# Tested on: HepG2 liver spheroids
# method notes: Spheroids toxicity assay (alamarBlue)
# Type: cell-based
# experimental conditions: HepG2 liver spheroids; read-out: Citotoxicity CC50 (μM) Sph
# Method: HepG2 cells were cultured as a monolayer under standard conditions, using DMEM/F12 medium supplemented with L-glutamine and 15 mM HEPES buffer (pH 7.2) supplemented with 10% fetal bovine serum (FBS) and antibiotic mixture (100 U/mL penicillin and 100 µg/mL streptomycin) at 37 °C and 5% CO2, according to previous published protocols. Cells were detached from the culture flask using 0.25% trypsin solution and then centrifuged at 500× g for 6.5 min. […]
measurement label: CC50

# molecule, test target, endpoint result
data = [
    ("O=C(/C=C/c1ccccc1)c1ccccc1 [Trans-chalcone]", "HepG2 liver spheroids", "> 90 µM"),
]

====

# Tested on: C. elegans
# method notes: microbe, parasite or virus in culture
# experimental conditions: Caenorhabditis elegans, 0 h, read-out: Percentage of motility inhibition 0 h, Table S2, C. elegans SS assay, 110 μM, 0 h, averages of 4 data points
Recorded inhibition at 110 µM values for a group of compounds are listed next.

# compound, inhibition at 110 µM, %
rows = [
    ("C[C@@H]1O[C@@H](OC[C@H]2O[C@@H](Oc3cc(O)c4c(c3)O[C@H](c3ccc(O)c(O)c3)CC4=O)[C@H](O)[C@@H](O)[C@@H]2O)[C@H](O)[C@H](O)[C@H]1O", 54),
    ("CC(C)=CCC[C@](C)(O[C@@H]1O[C@H](CO[C@@H]2O[C@@H](CO)[C@H](O)[C@H]2O)[C@@H](O)[C@H](O)[C@H]1O)[C@H]1CC[C@]2(C)[C@@H]1[C@H](O)C[C@@H]1[C@@]3(C)CC[C@H](O[C@@H]4O[C@H](CO)[C@@H](O)[C@H](O)[C@H]4O[C@@H]4O[C@H](CO)[C@@H](O)[C@H](O)[C@H]4O)C(C)(C)[C@@H]3CC[C@]12C [Ginsenoside Rc]", 0),
    ("CC[C@]12CCCN3CCc4c(n(c5ccccc45)[C@@](O)(C(=O)OC)C1)[C@@H]32", 0),
    ("CCN1C[C@]2(C)CC[C@H](OC)[C@@]34C1[C@]1(OCO[C@@]15C[C@H](OC)[C@H]1C[C@]3(O)[C@@H]5[C@H]1OC)[C@@H](OC(C)=O)[C@H]24", 0),
]

====

# Tested on: C. elegans
# experimental conditions: Table S2, C. elegans SS assay, 110 μM, 0 h, averages of 4 data points
measurement label: Percentage of motility inhibition 0 h

# molecule, endpoint result
data = [
    ("OC[C@H]1O[C@@H](Oc2cc3c(O)cc(O)cc3[o+]c2-c2ccc(O)c(O)c2)[C@H](O)[C@@H](O)[C@@H]1O.[Cl-] [Kuromanin (chloride)]", "34%"),
    ("O=c1c(O[C@@H]2O[C@H](CO)[C@H](O)[C@H](O)[C@H]2O[C@@H]2O[C@H](CO)[C@@H](O)[C@H](O)[C@H]2O)c(-c2ccc(O)cc2)oc2cc(O)cc(O)c12 [Panasenoside]", "6%"),
    ("COc1cc2c(cc1OC)-c1c(C)c3ccc(OC)c(OC)c3c[n+]1CC2.[OH-] [Dehydrocorydaline (hydroxyl)]", "2%"),
    ("C[C@H](CC[C@@H](O[C@@H]1O[C@H](CO[C@@H]2O[C@H](CO)[C@@H](O)[C@H](O)[C@H]2O)[C@@H](O)[C@H](O)[C@H]1O[C@@H]1O[C@H](CO)[C@@H](O)[C@H](O)[C@H]1O)C(C)(C)O)[C@H]1CC[C@@]2(C)[C@@H]3CC=C4[C@@H](CC[C@H](O[C@@H]5O[C@H](CO)[C@@H](O)[C@H](O)[C@H]5O)C4(C)C)[C@]3(C)[C@H](O)C[C@]12C [Siamenoside I]", "16%"),
]

====

# Test system: T. circumcincta resistant strain
# method notes: Egg hatch inhibition (EHI), ovicidal effect
# Parameters: species or system Teladorsagia circumcincta
# experimental conditions: egg hatching, resistant T. circumcincta, nine replicates; read-out: Ovicidal Effect EC50 (μM) T. c

# molecule, test target, EC50 (µM)
measured = [
    ("O=C(/C=C/c1ccccc1)c1ccccc1 [Trans-chalcone]", "T. circumcincta resistant strain", 4.9),
]

====

Here the recorded Percentage of motility inhibition 0 h is given for each entry.
# Test system: C. elegans
# experimental conditions: Table S2, C. elegans SS assay, 110 μM, 0 h, averages of 4 data points

# compound, Percentage of motility inhibition 0 h / %
records = [
    ("C=C1[C@H](OC(=O)c2ccccc2)C[C@H]2[C@@H](/C=C(\\C)C(=O)[C@@]3(OC(C)=O)C[C@H](C)[C@H](OC(=O)c4ccccc4)[C@@H]3[C@H]1OC(C)=O)C2(C)C [Euphorbia Factor L2]", 27),
    ("COc1cc2c(cc1OC)C1Cc3ccc(OC)c(OC)c3CN1CC2.Cl (stereo not drawn) [Tetrahydropalmatine (hydrochloride)]", 0),
    ("COc1cc([C@@H]2Oc3c(O)cc([C@H]4Oc5cc(O)cc(O)c5C(=O)[C@@H]4O)cc3[C@H]2CO)ccc1O [Silychristin]", 33),
]
